Target: AgBbc1
Assay: SPOT peptide array binding signal intensity (averaged, normalized) (arbitrary units (background-subtracted, floor 0; scale differs between SH3 domains)); higher = stronger binding of the SH3 domain to the peptide
Decide by SPOT peptide array binding signal intensity: equal to or exceeding 60 means 1.0, less means 0.0.

AIPPPVPNRPGGTTN; 1.0
GKKVRPLLVLLLSRA; 0.0
DFTLPPPPPPPGLDE; 0.0

*Q* Does the reported SPOT peptide array binding signal intensity for KFIPSRPAPKPPSSA fall at or above the 60 mark?
*A* 1.0

*Q* Here is the next binder: GAGERPRLVPRPINV
*A* 1.0

*Q* Here is the next binder: DGNEEKPLLPTRPNK
*A* 1.0

*Q* Here is the next binder: RAPPPVPKKPSSRIA
*A* 1.0

*Q* Here is the next binder: FLIKFTPKFPQSIDH
*A* 1.0

*Q* Here is the next binder: KDKKTKPTPPPKPSH
*A* 0.0
